Items are presented alongside their recorded MIC.
Test system: Escherichia coli
Test: microbe, parasite or virus in culture
readout: MIC

>>> assayvalue("C[C@H]1[C@H](NC(=O)/C(=N\\OC(C)(C)C(=O)O)c2csc(N)n2)C(=O)N1S(=O)(=O)O")
"1 µg/mL"
>>> assayvalue("NC[C@@H]1CN(C[C@@H]2[C@H](NC(=O)/C(=N\\OC3(C(=O)O)CC3)c3csc(N)n3)C(=O)N2S(=O)(=O)O)C(=O)O1 (stereo in doubt)")
"0.25 µg/mL"
>>> assayvalue("C[C@@H](O)[C@H]1C(=O)N2C(C(=O)O)=C(S[C@@H]3CN[C@H](C(=O)N(C)C)C3)[C@H](C)[C@H]12")
"≤ 0.06 µg/mL"
>>> assayvalue("N=C(N)NCc1cnn(C[C@@H]2[C@H](NC(=O)/C(=N\\OC3(C(=O)O)CC3)c3csc(N)n3)C(=O)N2S(=O)(=O)O)n1 (stereo in doubt)")
"8 µg/mL"
>>> assayvalue("CC(C)(O/N=C(\\C(=O)N[C@@H]1C(=O)N2C(C(=O)[O-])=C(C[n+]3ccccc3)CS[C@H]12)c1csc(N)n1)C(=O)O")
"16 µg/mL"
>>> assayvalue("N=C(N)NCc1cn(C[C@@H]2[C@H](NC(=O)/C(=N\\OC3(C(=O)O)CC3)c3csc(N)n3)C(=O)N2S(=O)(=O)O)nn1 (stereo in doubt)")
"4 µg/mL"

The measurements presented in this section are drawn from ChEMBL document CHEMBL4184210.
